B1: VTI1B (parent)
chain: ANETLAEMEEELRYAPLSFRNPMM

variants of: B1; test: protein stability index of a GFP-peptide fusion (GPS, HEK-293T) (PSI 1-6); higher = more stable; conditions: c terminus: a fixed tail appended;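 also: lentivirally expressed fusions sorted by FACS into six bins by GFP to DsRed ratio, PSI derived from sequencing read proportions per bin multiplied by bin number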
Below: a set of entries, each annotated with reported protein stability index.

Study these solved cases before continuing.
> print(dat)
   sequence.variant  endpoint.result
1               A1L             2.14
2               E3Q             2.53
3              N21P             3.58
4              E11Q             1.95
5               E3T             2.01

**Query** Name the recorded protein stability index of the variant listed here: L17V
**Result** 2.8

**Query** Name the recorded protein stability index of the variant listed here: E10T
**Result** 3.02
